Tested on: nude mice, HT29 intrarenal xenograft, tumor weight T/C
Assay: NCI In Vivo Anticancer Drug Screen. Data for tumor model HT29;CX-1 Human Adenocarcinoma (MER+) (intrarenal inoculation) in NU/NU Swiss (nude) mice
Settings: endpoint: mean tumor weight change; dose: 300.0 mg/kg/injection; schedule: Q04DX004 (sc); vehicle: saline with Tween-80; higher = larger tumour
Results filed as inconclusive are left out.
Give T/C for every item shown.

-- ask Provide value of T/C for this record tested with nude mice, HT29 intrarenal xenograft, tumor weight T/C: `CCOC(=O)C(C)(C)Oc1ccc(Cl)cc1`
-- reply 72 % of control

-- ask Provide value of T/C for this record tested with nude mice, HT29 intrarenal xenograft, tumor weight T/C: `CCOC(=O)Nc1cc2c(c(N)n1)N=C(c1ccc(Cl)cc1Cl)CN2`
-- reply 83 % of control

-- ask Provide value of T/C for this record tested with nude mice, HT29 intrarenal xenograft, tumor weight T/C: `Cc1c2cc(Cl)c3ccccc3c2c[n+]2ccccc12`
-- reply 101 % of control

-- ask Provide value of T/C for this record tested with nude mice, HT29 intrarenal xenograft, tumor weight T/C: CCCCCCC(=O)CC(SCC)c1ccccc1Cl (stereo unspecified)
-- reply 92 % of control

-- ask Provide value of T/C for this record tested with nude mice, HT29 intrarenal xenograft, tumor weight T/C: `CS(=O)(=O)c1ncc(Br)cn1`
-- reply 57 % of control

-- ask Provide value of T/C for this record tested with nude mice, HT29 intrarenal xenograft, tumor weight T/C: `CN(C)P(=O)(Oc1ccccc1)N(C)C`
-- reply 62 % of control

-- ask Provide value of T/C for this record tested with nude mice, HT29 intrarenal xenograft, tumor weight T/C: `CC1=C(/C=C/C(C)=C/C=C/C(C)=C/C=O)C(C)(C)CCC1`
-- reply 62 % of control

-- ask Provide value of T/C for this record tested with nude mice, HT29 intrarenal xenograft, tumor weight T/C: `NC(=S)N/N=C/c1ccc(OC(=O)COc2ccccc2)cn1`
-- reply 94 % of control

-- ask Provide value of T/C for this record tested with nude mice, HT29 intrarenal xenograft, tumor weight T/C: CC(=Nc1ccccc1)C1=C(O)C(Cc2ccccc2)NC1=O (stereo unspecified)
-- reply 43 % of control

-- ask Provide value of T/C for this record tested with nude mice, HT29 intrarenal xenograft, tumor weight T/C: `C[C@]12CC[C@H](O)CC1=CC[C@@H]1[C@@H]2CC[C@]2(C)C(=O)CC[C@@H]12`
-- reply 54 % of control

-- ask Provide value of T/C for this record tested with nude mice, HT29 intrarenal xenograft, tumor weight T/C: `CCN(CC)Cc1cc2[nH]c3c4ccc(Cl)cc4ncc3c2cc1OC`
-- reply 94 % of control
